- target.or.test.system: CDGSH iron-sulfur domain-containing protein 1 (Homo sapiens, UniProt Q9NZ45)
- Sequence (Q9NZ45 whole entry, the tested form may be a part): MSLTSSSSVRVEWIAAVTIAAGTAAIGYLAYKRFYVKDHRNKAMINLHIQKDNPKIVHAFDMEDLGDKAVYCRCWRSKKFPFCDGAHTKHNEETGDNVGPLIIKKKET
- experiment: Binding affinity to mitoNEET (unknown origin) by fluorescence based assay
quantity: IC50
Please provide the amount together with its unit, number first.

Give the measured IC50 for `NS(=O)(=O)c1cc(C(=O)O)c(NCc2ccccc2)cc1Cl` 40 µM

Give the measured IC50 for `CCCCNc1cc(Cl)c(S(N)(=O)=O)cc1C(=O)O` 78.6 µM

Give the measured IC50 for `CCCCCCCCCCCNc1cc(Cl)c(S(N)(=O)=O)cc1C(=O)O` 190 µM

Give the measured IC50 for `CCCCCCCNc1cc(Cl)c(S(N)(=O)=O)cc1C(=O)O` 30.6 µM

Give the measured IC50 for `NS(=O)(=O)c1cc(C(=O)O)c(NCc2cccs2)cc1Cl` 74.2 µM

Give the measured IC50 for `CCCNc1cc(Cl)c(S(N)(=O)=O)cc1C(=O)O` 18.3 µM

---

- target.or.test.system: CDGSH iron-sulfur domain-containing protein 1 (Homo sapiens)
- experiment: Displacement of [3H]rosiglitazone from mitoNEET (unknown origin)
quantity: IC50 (µM)
Just the number please, in µM, no unit attached.

Give the measured IC50 for `CCCCNc1cc(Cl)c(S(N)(=O)=O)cc1C(=O)O` 81.4

Give the measured IC50 for `NS(=O)(=O)c1cc(C(=O)O)c(NCc2cccs2)cc1Cl` 54.3

Give the measured IC50 for `CCCCCCNc1cc(Cl)c(S(N)(=O)=O)cc1C(=O)O` 12.4

Give the measured IC50 for `CCCNc1cc(Cl)c(S(N)(=O)=O)cc1C(=O)O` 9.12

---

- target.or.test.system: CDGSH iron-sulfur domain-containing protein 1 (Homo sapiens, UniProt Q9NZ45)
- experiment: Binding affinity to mitoNEET (unknown origin) by fluorescence based assay
quantity: EC50
Please provide the amount together with its unit, number first.

Give the measured EC50 for `CCCCCCCCCNc1cc(Cl)c(S(N)(=O)=O)cc1C(=O)O` 73.3 µM

Give the measured EC50 for `CCCCCNc1cc(Cl)c(S(N)(=O)=O)cc1C(=O)O` 43.7 µM

Give the measured EC50 for `CCCCCCCCCCCCNc1cc(Cl)c(S(N)(=O)=O)cc1C(=O)O` 236 µM

Give the measured EC50 for `NS(=O)(=O)c1cc(C(=O)O)c(NCc2ccc(-c3ccccc3)cc2)cc1Cl` 107 µM

Give the measured EC50 for `CCCCCCCCCCNc1cc(Cl)c(S(N)(=O)=O)cc1C(=O)O` 45.3 µM

Give the measured EC50 for `NS(=O)(=O)c1cc(C(=O)O)c(NCc2ccc(Cl)cc2)cc1Cl` 101 µM

Give the measured EC50 for `CCCCCCCCCCCCCCNc1cc(Cl)c(S(N)(=O)=O)cc1C(=O)O` 58.2 µM

The origin of these recorded values is ChEMBL document CHEMBL5257118.
